system: rats; test: Penile erection test using rats; type: in vivo, rat; conditions: oral single dose 10 mg/kg in 0.5% methyl cellulose, observed for 2 hours
Exercise: for every item that follows, state its recorded PEI (penile erection index).
Number only, no unit.

Which PEI (penile erection index) value belongs to CCCc1nn(CC)c2c(=O)[nH]c(-c3cc(S(=O)(=O)Nc4ccc(F)cc4)ccc3OCC)nc12 ?
233.3

Which PEI (penile erection index) value belongs to CCCOc1ccc(S(=O)(=O)NCc2cccnc2)cc1-c1nc2c(CCC)nn(C)c2c(=O)[nH]1 ?
200.0

Which PEI (penile erection index) value belongs to CCCc1nn(C)c2c(=O)[nH]c(-c3cc(S(=O)(=O)NC4CC4)ccc3OCC)nc12 ?
300.0

Which PEI (penile erection index) value belongs to CCCc1nn(C)c2c(=O)[nH]c(-c3cc(S(=O)(=O)NCC4CCN(C)C4)ccc3OCC)nc12 (stereo not shown) ?
150.0

Which PEI (penile erection index) value belongs to CCCOc1ccc(S(=O)(=O)NCC2CCCN2C)cc1-c1nc2c(CCC)nn(C)c2c(=O)[nH]1 (stereo not shown) ?
200.0

Which PEI (penile erection index) value belongs to CCCc1nn(C)c2c(=O)[nH]c(-c3cc(S(=O)(=O)NC(C)CC)ccc3OCC)nc12 (stereo not shown) ?
466.7

Which PEI (penile erection index) value belongs to CCCc1nn(C)c2c(=O)[nH]c(-c3cc(S(=O)(=O)NCc4ccncc4)ccc3OCC)nc12 ?
11.1

Which PEI (penile erection index) value belongs to CCCOc1ccc(S(=O)(=O)NC2CCN(C)C2)cc1-c1nc2c(CCC)nn(C)c2c(=O)[nH]1 (stereo not shown) ?
300.0

Which PEI (penile erection index) value belongs to CCCOc1ccc(S(=O)(=O)NCc2ccncc2)cc1-c1nc2c(CCC)nn(C)c2c(=O)[nH]1 ?
166.7

Which PEI (penile erection index) value belongs to CCCc1nn(CC)c2c(=O)[nH]c(-c3cc(S(=O)(=O)NCC4CCCN4C)ccc3OCC)nc12 (stereo not shown) ?
131.3

Which PEI (penile erection index) value belongs to CCOc1ccc(S(=O)(=O)NCc2cccnc2)cc1-c1nc2c(CC(C)C)nn(C)c2c(=O)[nH]1 ?
166.7

Which PEI (penile erection index) value belongs to CCCc1nn(C)c2c(=O)[nH]c(-c3cc(S(=O)(=O)NCCC4CCCN4C)ccc3OCC)nc12 (stereo not shown) ?
75.0

Which PEI (penile erection index) value belongs to CCCc1nn(C)c2c(=O)[nH]c(-c3cc(S(=O)(=O)NC4CCCC4)ccc3OCC)nc12 ?
44.4

Which PEI (penile erection index) value belongs to CCOc1ccc(S(=O)(=O)NC(C)C)cc1-c1nc2c(CC(C)C)nn(C)c2c(=O)[nH]1 ?
133.3

Which PEI (penile erection index) value belongs to CCOc1ccc(S(=O)(=O)NCC2CCN(CC)C2)cc1-c1nc2c(CC(C)C)nn(C)c2c(=O)[nH]1 (stereo not shown) ?
175.0

Which PEI (penile erection index) value belongs to CCCc1nn(C)c2c(=O)[nH]c(-c3cc(S(=O)(=O)Nc4ccccc4)ccc3OCC)nc12 ?
44.4
